Here the recorded Inhibition is given for each entry.
- System: Plasmodium falciparum
- Assay protocol: GSK_TCMDC: Inhibition of Plasmodium falciparum Dd2 in whole red blood cells, using parasite LDH activity as an index of growth. Test compounds present at 2uM
- Type: functional

{"columns": ["Compound", "Assay system", "Unit of measure", "Inhibition"],
 "data": [
  ["COc1ccc2nccc([C@@H](O)CN3CCC(NCCOc4cccc(F)c4F)CC3)c2c1.O=C(O)C(=O)O", "Plasmodium falciparum", "%", 85],
  ["CC(C)CCCC(C)NC[C@@H](O)[C@H](Cc1ccccc1)NC(=O)c1cc(N2CCCC2=O)cc(N(c2ccccc2)S(C)(=O)=O)c1 (some centres not stated)", "Plasmodium falciparum", "%", 97],
  ["Br.CCCN(CCCCCCNCCc1ccc(Cl)cc1)CCc1ccc(O)c(O)c1", "Plasmodium falciparum", "%", 11],
  ["CCCCCCN1CCCN(Cc2ccc(C(=O)Nc3ccc(C(C)C)cc3)cc2)CC1.O=C(O)C(F)(F)F", "Plasmodium falciparum", "%", 50],
  ["Clc1ccc(Cc2nc3ccccc3[nH]2)cc1Cl", "Plasmodium falciparum", "%", 2],
  ["CC(C)C[C@H](NC(=O)c1ccc(OCCN2CCOCC2)cc1)C(=O)N[C@H](/C=N/N(C)C(=O)c1ccccc1)CCc1ccccc1", "Plasmodium falciparum", "%", 72],
  ["CO/C(=C\\C=C\\c1cc2cc(Cl)c(Cl)cc2[nH]1)C(=O)NCCCN1CCN(c2ccc(OC)cc2)CC1", "Plasmodium falciparum", "%", 44],
  ["O=C(/C=C/c1ccc(Cl)c(Cl)c1)NCCCCCN1CCC(NC(=O)c2ccc3ccccc3c2)CC1", "Plasmodium falciparum", "%", 20],
  ["CSc1ccc(CN2CCC(NC(=O)c3ccc(-c4cccc(C(F)(F)F)c4)s3)CC2)cc1.O=C(O)C(F)(F)F", "Plasmodium falciparum", "%", 9],
  ["Cc1cc(CN2CC[C@H](NC(=O)c3ccc(Cl)c(Cl)c3)C2)ccc1OC1CCN(C)C1.O=C(O)C(F)(F)F (some centres not stated)", "Plasmodium falciparum", "%", 24],
  ["Cc1ccc2[nH]c(Nc3ccc(Nc4nc5cc(C)ccc5[nH]4)c(C)c3)nc2c1", "Plasmodium falciparum", "%", 94],
  ["O=C(NC1CCN(Cc2ccccc2)CC1)c1cc(-c2cccnc2)nc2ccc(Cl)cc12", "Plasmodium falciparum", "%", 26],
  ["O=C(Nc1ccc(OC2CCN(Cc3ccc(F)cc3)C2)c(Cl)c1)c1ccccc1.O=C(O)C(F)(F)F (configuration not stated)", "Plasmodium falciparum", "%", 86],
  ["Nc1n[nH]c(-c2ccccc2Nc2ccnc3cc(-c4nccs4)ccc23)n1", "Plasmodium falciparum", "%", 94],
  ["CN(C(=O)Nc1ccc(F)cc1)C1CCN(CCCCCNC(=O)/C=C/c2ccc(Cl)c(Cl)c2)CC1", "Plasmodium falciparum", "%", 0],
  ["Fc1ccc2[nH]c(-c3ccc(-c4ccc(CNCCc5ccncc5)cc4)cc3)nc2c1.O=C(O)C(F)(F)F", "Plasmodium falciparum", "%", 97],
  ["CNCCNCc1ccc(-c2ccc(-c3nc4cc(C(F)(F)F)ccc4[nH]3)s2)cc1.O=C(O)C(F)(F)F", "Plasmodium falciparum", "%", 100],
  ["CCn1cc(-c2nc(-c3cc(OC)cc(OC)c3)no2)c(=O)c2ccccc21", "Plasmodium falciparum", "%", 77],
  ["CC(C)C1=C[C@H]2C[C@]3(C4OCCO4)[C@@H]4CC[C@@H](C)[C@H]4C[C@@]2(C(=O)OCC2COCO2)[C@]13C(=O)OC(c1ccccc1)c1ccccc1 (some centres not stated)", "Plasmodium falciparum", "%", 96],
  ["CC(C)Sc1nc(-c2ccccc2)nc2c1COC(C)(C)C2", "Plasmodium falciparum", "%", 41],
  ["Cc1cccc(N2C(N)=NC(N)=NC2(C)C)c1C.Cl", "Plasmodium falciparum", "%", 0],
  ["Cn1c(N)cc(-c2cccc(I)c2)c2c(=O)nc(N)nc1-2", "Plasmodium falciparum", "%", 75],
  ["Br.CCCC1N=C(N)N=C(N)N1c1ccc(C)c(C)c1 (configuration not stated)", "Plasmodium falciparum", "%", 0],
  ["Cn1cncc1CNCc1ccc(-c2cccc(-c3nc4ccccc4[nH]3)c2)cc1.O=C(O)C(F)(F)F", "Plasmodium falciparum", "%", 92],
  ["Cl.N=C(N)Nc1ccc(CCc2ccc(NC(=N)N)cc2)cc1", "Plasmodium falciparum", "%", 95],
  ["Cc1cccc2nc(-c3ccc(-c4cccc(NC(=O)CCc5c[nH]cn5)c4)s3)[nH]c12", "Plasmodium falciparum", "%", 70],
  ["COc1ccc(-c2nc3cccnc3n2CC(=O)Nc2cc(Cl)c(Cl)cc2Cl)c(OC)c1", "Plasmodium falciparum", "%", 17],
  ["CCc1ccc(-n2c(NC(=O)c3ccccc3)nc3ccc(S(=O)(=O)NC(C)C(C)C)cc32)cc1 (configuration not stated)", "Plasmodium falciparum", "%", 0],
  ["CCc1cn2c3c(cc(C(=O)N[C@@H](Cc4ccccc4)[C@H](O)CNCc4ccccc4)cc13)N(C)S(=O)(=O)CC2.O=CO", "Plasmodium falciparum", "%", 99],
  ["CCN(CC)CCN(Cc1ccc(-c2ccc(C#N)cc2)cc1)C(=O)Cn1c(CCc2cccc(F)c2F)nc(=O)c2ccccc21.O=C(O)C(O)C(O)C(=O)O", "Plasmodium falciparum", "%", 46],
  ["Cl.Cn1c(=O)n(C)c2cc(CNCCNc3ccnc4cc(Cl)ccc34)ccc21", "Plasmodium falciparum", "%", 96],
  ["C=CC(=O)Nc1ccc(Cl)cc1C(O)c1ccccc1 (configuration not stated)", "Plasmodium falciparum", "%", 5]
]}

* * *

- Tested on: Plasmodium falciparum
- Assay protocol: GSK_TCMDC: Inhibition of Plasmodium falciparum 3D7 in whole red blood cells, using parasite LDH activity as an index of growth. Test compounds present at 2uM
- Format: functional
// reported Inhibition per item

{"columns": ["Compound", "Inhibition, %"],
 "data": [
  ["COc1ccc2[nH]ccc(=NN=Cc3ccc(F)cc3)c2c1", 98],
  ["O=C(NCCN1CCCC1)c1ccc(-c2ccc(-c3nc4cc(C(F)(F)F)ccc4[nH]3)s2)cc1", 97],
  ["Cc1cc(N[C@@H](CC(C)C)C(=O)Nc2ccccc2)nc(NCCc2ccc(F)cc2)n1.O=C(O)C(F)(F)F", 100],
  ["Cc1cc(OC(C)C(=O)N2CCc3ccccc32)ccc1Cl (centres undefined)", 89],
  ["C#CCNC(=O)c1ccc(-c2ccnc(Nc3cccc(CCCN4CCOCC4)c3)n2)s1", 82],
  ["CCc1cn2c3c(cc(C(=O)N[C@@H](Cc4cc(F)cc(F)c4)[C@H](O)CNC4CCOCC4)cc13)N(C)S(=O)(=O)CC2.O=CO", 98],
  ["COc1ccccc1-c1nc2c(ccc3nc(N)nc(N)c32)[nH]1", 100],
  ["CCCCOC(=O)C1=C(C)NC2=C(C(=O)CC(c3ccc(OC)c(OC)c3)C2)C1c1ccc(O)cc1 (centres undefined)", 90],
  ["O=C(O)C(F)(F)F.Oc1ccc(CCNc2nc(NCc3ccccc3Oc3ccc(C(F)(F)F)cc3)nc(N3CCNCC3)n2)cc1", 86],
  ["CN1CCC(c2nc(N)no2)C1.O=C(O)C(=O)O (centres undefined)", 95],
  ["CCCNCc1ccc(-c2ccc(CNC3Cc4ccccc4C3)cc2)nc1.O=C(O)C(F)(F)F", 97],
  ["O=C(CCC1CCCC1)N(Cc1ccc(-c2ccc(CNCCc3ccccc3)cc2)cc1)C1CCCNC1.O=C(O)C(F)(F)F (centres undefined)", 90],
  ["CC(C)c1sc(N2CCN(C)CC2)nc1C(=O)NCCc1cccc(Cl)c1.O=C(O)C(F)(F)F", 91],
  ["CN(C)c1ccc(-c2csc(C(=O)NC3CCCCN(Cc4ccc(C(C)(C)C)cc4)C3)c2)cc1.O=C(O)C(F)(F)F (centres undefined)", 84]
]}

* * *

- Test system: Plasmodium falciparum
- Assay protocol: GSK_TCMDC: Inhibition of Plasmodium falciparum Dd2 in whole red blood cells, using parasite LDH activity as an index of growth. Test compounds present at 2uM
- Type: functional
Metric: Inhibition (%)

{"columns": ["Compound", "Reported value"],
 "data": [
  ["COc1ccc2c(c1)c(C1CCN(CCCCNC(=O)c3ccc(-c4ccc(C(F)(F)F)cc4)cc3)CC1)cn2C(C)C", 21],
  ["CCC(C)NS(=O)(=O)c1ccc2nc(Nc3ccc(C)c(Cl)c3)n([C@H](C)C(C)(C)C)c2c1 (stereo not given in full)", 100],
  ["NC1CCCN(Cc2ccc(-c3cccc(-c4nc5cc(F)ccc5[nH]4)c3)cc2)C1.O=C(O)C(F)(F)F (stereo not given)", 75],
  ["CCN(CC)CCc1ccc2c(=O)cc(CCc3cccc(F)c3F)n(CC(=O)N(C)Cc3ccc(-c4ccc(C(F)(F)F)cc4)cc3)c2c1.O=C(O)C(O)C(O)C(=O)O", 45],
  ["COc1ccc(-c2cc(C(=O)Nc3ccc4[nH]c(-c5ccccc5)nc4c3)[nH]n2)cc1.O=C(O)C(F)(F)F", 78],
  ["Cl.NC(=O)c1cccc(Nc2nccc(Nc3ccc(Oc4c(Cl)cccc4Cl)c(Cl)c3)n2)c1", 17],
  ["CC(C)Cn1c(Sc2ccc(C#N)c([N+](=O)[O-])c2)nnc1-c1cccs1", 32],
  ["CCOc1cc(C)ccc1C1CCN(CCCCNC(=O)c2nc(-c3ccc(C(F)(F)F)cc3)[nH]c2C)CC1.Cl", 98],
  ["Cc1cccc2nc(-c3ccc(-c4cccc(CNCCN5CCNCC5)c4)cc3)[nH]c12.O=C(O)C(F)(F)F", 2],
  ["Clc1ccc(CNCC2CCN(CC3CCCCC3)CC2)cc1Cl", 6],
  ["Cc1nc(C)c(-c2ccc(C(=O)c3ccc(Cl)cc3)cc2)c(O)c1Br", 95],
  ["Cl.O=C(Nc1cccc(-c2nn3ncccc3c2-c2ccnc(Nc3cccnc3)n2)c1)c1c(F)cccc1F", 70],
  ["Cc1cc(N[C@@H](Cc2ccccc2)C(=O)NC2CCCC2)nc(NCc2ccccc2C)n1.O=C(O)C(F)(F)F", 20],
  ["Cc1cccc2nc(-c3cccc(-c4cccc(CN5CCN(c6ccncc6)CC5)c4)c3)[nH]c12.O=C(O)C(F)(F)F", 96],
  ["N#Cc1ccc(CN2CCCN(c3ccc(NC(=O)c4ccc(F)cc4)cc3)CC2)cc1.O=C(O)C(F)(F)F", 61],
  ["O=C(Nc1ccc(N2CCCN(Cc3cccc(F)c3)CC2)cc1)c1ccccc1.O=C(O)C(F)(F)F", 95],
  ["Cl.c1cc(-c2cc3ccc(C4=NCCN4)cc3[nH]2)ccc1C1=NCCN1", 99],
  ["CN(C)CCNCc1ncsc1-c1ccc2c(Nc3ccc(F)cc3Cl)ccnc2c1", 95],
  ["CS(=O)(=O)c1ccc2[nH]c(-c3cc(-c4ccc(OCCN5CCOCC5)cc4)cnc3N)nc2c1.O=C(O)C(F)(F)F", 99],
  ["CC(C)(C)c1ccc(NC(=O)c2ccc(CN3CCCN(Cc4cccc(Cl)c4)CC3)cc2)cc1.O=C(O)C(F)(F)F", 7],
  ["COc1cccc(C(=O)NCCc2cccc(Cl)c2)c1Oc1ccccc1", 90],
  ["COc1ccc(C(F)(F)F)cc1N1CCN(CCCCNC(=O)c2ccc(NC(=O)c3ccc(Cl)cc3)cc2)CC1", 1],
  ["Cl.N#Cc1ccc2c(c1)CCN(CCC1CCC(NC(=O)/C=C/c3ccc(Cl)c(Cl)c3)CC1)CC2 (stereo not given)", 51],
  ["O=[N+]([O-])c1ccc(N/C(=N\\c2ccccc2Br)NCCOc2ccccc2)c(O)c1", 70],
  ["Cl.N=C(N)c1ccc(NC(=O)Cc2nc3cc(C(=N)N)ccc3[nH]2)cc1", 81]
]}
